ASSAY_SYSTEM: Metabotropic glutamate receptor 5 (Homo sapiens, UniProt P41594)
Sequence (P41594 whole entry): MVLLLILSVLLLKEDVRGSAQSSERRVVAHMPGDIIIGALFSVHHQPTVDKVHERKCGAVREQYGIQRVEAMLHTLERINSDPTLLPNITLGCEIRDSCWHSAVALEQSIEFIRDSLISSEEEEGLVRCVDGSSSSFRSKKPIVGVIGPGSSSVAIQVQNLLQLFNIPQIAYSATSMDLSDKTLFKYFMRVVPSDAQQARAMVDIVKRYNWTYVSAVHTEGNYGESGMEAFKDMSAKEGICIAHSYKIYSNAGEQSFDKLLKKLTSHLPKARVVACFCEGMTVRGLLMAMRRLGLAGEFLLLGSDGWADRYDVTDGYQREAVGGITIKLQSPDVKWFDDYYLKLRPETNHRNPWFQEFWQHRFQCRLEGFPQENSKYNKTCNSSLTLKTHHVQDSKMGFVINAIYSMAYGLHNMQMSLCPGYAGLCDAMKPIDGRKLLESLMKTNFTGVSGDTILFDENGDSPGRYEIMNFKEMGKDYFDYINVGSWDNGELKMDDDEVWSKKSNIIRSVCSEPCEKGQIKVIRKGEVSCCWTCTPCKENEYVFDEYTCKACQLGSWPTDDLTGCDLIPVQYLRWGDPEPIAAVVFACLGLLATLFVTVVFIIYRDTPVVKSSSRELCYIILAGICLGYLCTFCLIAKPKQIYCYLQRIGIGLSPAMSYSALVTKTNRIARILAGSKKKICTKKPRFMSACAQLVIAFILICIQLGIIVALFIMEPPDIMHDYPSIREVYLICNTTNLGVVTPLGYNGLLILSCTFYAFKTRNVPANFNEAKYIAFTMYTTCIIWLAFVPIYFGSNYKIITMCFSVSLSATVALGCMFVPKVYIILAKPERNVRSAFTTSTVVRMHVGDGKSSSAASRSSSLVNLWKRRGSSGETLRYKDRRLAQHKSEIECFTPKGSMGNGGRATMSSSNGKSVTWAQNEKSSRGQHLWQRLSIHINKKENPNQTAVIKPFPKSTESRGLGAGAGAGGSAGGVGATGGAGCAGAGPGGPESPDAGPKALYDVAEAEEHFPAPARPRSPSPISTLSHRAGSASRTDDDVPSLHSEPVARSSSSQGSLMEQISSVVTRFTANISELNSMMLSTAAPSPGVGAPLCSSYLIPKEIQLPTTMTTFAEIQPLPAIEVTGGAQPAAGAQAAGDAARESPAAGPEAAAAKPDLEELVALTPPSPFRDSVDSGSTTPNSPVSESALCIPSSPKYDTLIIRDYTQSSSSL
METHOD: The Fluo 8-AM fluorescent dye is an […] derivative of Fluo 8 which can easily penetrate the cell membrane into the cell by culture. The fluorescent dye into the cell will be hydrolyzed by intracellular esterase, the resulting Fluo 8 cannot easily pass through the lipid bimolecular membrane as a polar molecule, and will retain in the cell, and combine with calcium (Ca2+) to produce fluoresces.Cells expressing GPCR receptor protein (mGluR5) were first calibrated with a calcium ion sensitive fluorescent probe and then stimulated with the compound. After stimulation, the activation of the receptor lead to the calcium ion mobilization, and the fluorescent probe captures the calcium ion to induce the fluorescence signal. The signal can be read by a fluorescent plate reader. The fluorescent plate reader contains a sampling head for compound addition, thus enabling the change of the fluorescence value of the compound be read in real time.
ENDPOINT: IC50 (nM)
Give the value, in units of nM, as a plain number.

Query :: Give the measured IC50 for `Cc1nc(C#Cc2cccc(C(=O)N3CCc4ccccc4C3)c2)cs1`
Result :: 14.4

Query :: Return IC50 (reported value) for this compound: `Cc1nc(C#Cc2cccc(C(=O)Nc3cccnc3)c2)cs1`
Result :: 14.2
